This section presents compounds with their documented AC50 values.
biological target: Progesterone receptor (Homo sapiens, UniProt P06401); further: assay procedure not described here
Sequence (P06401 whole entry): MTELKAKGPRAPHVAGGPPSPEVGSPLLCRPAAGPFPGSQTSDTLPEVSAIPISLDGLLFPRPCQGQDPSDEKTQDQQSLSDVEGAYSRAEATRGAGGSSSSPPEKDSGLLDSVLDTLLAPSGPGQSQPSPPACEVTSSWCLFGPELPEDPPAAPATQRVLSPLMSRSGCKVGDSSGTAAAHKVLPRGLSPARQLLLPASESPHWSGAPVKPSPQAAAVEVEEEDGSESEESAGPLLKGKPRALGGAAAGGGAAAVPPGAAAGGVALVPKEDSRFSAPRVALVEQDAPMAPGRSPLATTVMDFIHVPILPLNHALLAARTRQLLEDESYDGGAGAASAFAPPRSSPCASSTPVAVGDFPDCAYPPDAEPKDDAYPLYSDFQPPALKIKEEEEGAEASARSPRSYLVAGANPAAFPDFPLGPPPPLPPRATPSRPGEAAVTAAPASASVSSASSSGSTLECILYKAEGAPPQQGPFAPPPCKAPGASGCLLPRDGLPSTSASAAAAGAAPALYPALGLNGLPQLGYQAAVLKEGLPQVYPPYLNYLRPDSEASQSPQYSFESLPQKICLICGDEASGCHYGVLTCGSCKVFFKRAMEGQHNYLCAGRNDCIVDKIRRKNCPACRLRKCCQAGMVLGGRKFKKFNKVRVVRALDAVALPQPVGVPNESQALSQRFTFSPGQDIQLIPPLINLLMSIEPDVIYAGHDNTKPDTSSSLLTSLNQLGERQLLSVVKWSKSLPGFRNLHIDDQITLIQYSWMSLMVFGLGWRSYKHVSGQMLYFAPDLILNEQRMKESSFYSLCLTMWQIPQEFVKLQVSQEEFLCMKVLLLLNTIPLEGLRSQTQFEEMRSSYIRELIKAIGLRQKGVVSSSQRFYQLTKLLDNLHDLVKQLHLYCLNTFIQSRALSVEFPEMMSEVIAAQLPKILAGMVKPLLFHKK
measured property: AC50

>>> print(df.to_string())
                                    compound  endpoint_result
 0  N[C@@H](C(=O)N[C@@H]1C(=O)N2C(C(=O)O)=C(Cl)CC[C@H]12)c1ccccc1 [LORACARBEF ANHYDROUS]          > 30 µM
 1     CCCCCNC(=N)N/N=C/c1c[nH]c2ccc(OC)cc12          > 30 µM
 2  Cc1cn([C@H]2C[C@H](N=[N+]=[N-])[C@@H](CO)O2)c(=O)[nH]c1=O          > 30 µM
 3  COc1cc(NC(C)CCCN)c2ncccc2c1 (stereo not drawn)          15.4 µM
 4  CC(=O)OCC(=O)[C@@]1(O)CC[C@H]2[C@@H]3CCC4=CC(=O)C=C[C@]4(C)[C@@]3(Cl)[C@@H](Cl)C[C@@]21C [DICHLORISONE ACETATE]         0.173 µM
 5  CN(C)CCn1nnnc1SCC1=C(C(=O)O)N2C(=O)[C@@H](NC(=O)Cc3csc(N)n3)[C@H]2SC1          > 30 µM
 6  O=C(CCNNC(=O)c1ccncc1)NCc1ccccc1 [NIALAMIDE]          > 30 µM
 7  O=c1[nH]c(=O)n([C@H]2C[C@H](O)[C@@H](CO)O2)cc1I          > 30 µM
 8  CC(=O)[C@@]1(O)CC[C@H]2[C@@H]3C=C(C)C4=CC(=O)CC[C@]4(C)[C@H]3CC[C@@]21C         0.285 µM
 9  C=CCN1C[C@H](C(=O)N(CCCN(C)C)C(=O)NCC)C[C@@H]2c3cccc4[nH]cc(c34)C[C@H]21          > 30 µM
10  COCCCN1CCC(NC(=O)c2cc(Cl)c(N)c3c2OCC3)CC1 [PRUCALOPRIDE]          > 30 µM
11                   CC(C)(S)[C@@H](N)C(=O)O          > 30 µM
12  CCN1CCCC1CNC(=O)c1cc(S(N)(=O)=O)ccc1OC (stereo not drawn) [SULPIRIDE]          > 30 µM
13  CC(C)COC(=O)OCN1C(=O)CN(CCN2CC(=O)N(COC(=O)OCC(C)C)C(=O)C2)CC1=O          > 30 µM
14                  Clc1cc(Cl)c(OCC#CI)cc1Cl          > 30 µM
15          OC(CCN1CCCCC1)(c1ccccc1)c1ccccc1          > 30 µM
16                   Oc1c(Cl)cc(Cl)c2cccnc12          > 30 µM
17  CC(=O)N[C@@H]1[C@@H](O)[C@H](O)[C@@H](CO)O[C@H]1O          > 30 µM

Data provenance: ChEMBL document CHEMBL5291721
